// reported IC50 for each item listed
biological target: T1, recombinant soluble recombinant human α5β1 integrin-Fc fusion protein (human, UniProt P08648 42-995; P05556 21-728, limits assumed); test: competition ELISA on coated α5β1 integrin-Fc; competitor: biotinylated IIA1
T1 construct: Coated on ELISA plates at 1.0 µg/ml; The construct's limits and the Fc are not described; not shown: Fc part
T1 sequence (P08648 42-995 limits assumed, chain 1 of 2): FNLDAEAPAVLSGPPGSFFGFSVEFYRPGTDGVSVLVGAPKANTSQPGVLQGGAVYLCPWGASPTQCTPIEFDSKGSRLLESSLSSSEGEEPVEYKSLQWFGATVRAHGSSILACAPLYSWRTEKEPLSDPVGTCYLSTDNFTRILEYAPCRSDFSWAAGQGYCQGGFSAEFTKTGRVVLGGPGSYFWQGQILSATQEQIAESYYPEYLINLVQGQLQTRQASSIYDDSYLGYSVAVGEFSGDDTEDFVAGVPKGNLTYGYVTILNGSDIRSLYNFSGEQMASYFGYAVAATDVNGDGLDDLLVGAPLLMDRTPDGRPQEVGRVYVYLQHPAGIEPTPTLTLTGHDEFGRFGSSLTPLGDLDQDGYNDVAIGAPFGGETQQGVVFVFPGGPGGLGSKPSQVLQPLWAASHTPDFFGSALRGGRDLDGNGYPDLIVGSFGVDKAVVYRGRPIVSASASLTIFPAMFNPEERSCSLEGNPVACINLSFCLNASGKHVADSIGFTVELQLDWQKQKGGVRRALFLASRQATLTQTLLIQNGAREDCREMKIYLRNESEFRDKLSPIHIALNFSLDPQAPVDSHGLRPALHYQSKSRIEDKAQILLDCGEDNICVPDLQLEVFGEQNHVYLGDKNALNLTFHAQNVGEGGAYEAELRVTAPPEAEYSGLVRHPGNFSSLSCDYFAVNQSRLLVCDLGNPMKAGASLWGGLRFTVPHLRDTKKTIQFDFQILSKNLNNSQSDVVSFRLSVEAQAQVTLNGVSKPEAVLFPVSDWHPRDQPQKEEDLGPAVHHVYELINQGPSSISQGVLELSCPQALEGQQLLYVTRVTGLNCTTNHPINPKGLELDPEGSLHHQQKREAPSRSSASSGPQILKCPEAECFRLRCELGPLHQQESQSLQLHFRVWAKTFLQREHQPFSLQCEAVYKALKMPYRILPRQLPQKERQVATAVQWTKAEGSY
T1 sequence (P05556 21-728 limits assumed, chain 2 of 2): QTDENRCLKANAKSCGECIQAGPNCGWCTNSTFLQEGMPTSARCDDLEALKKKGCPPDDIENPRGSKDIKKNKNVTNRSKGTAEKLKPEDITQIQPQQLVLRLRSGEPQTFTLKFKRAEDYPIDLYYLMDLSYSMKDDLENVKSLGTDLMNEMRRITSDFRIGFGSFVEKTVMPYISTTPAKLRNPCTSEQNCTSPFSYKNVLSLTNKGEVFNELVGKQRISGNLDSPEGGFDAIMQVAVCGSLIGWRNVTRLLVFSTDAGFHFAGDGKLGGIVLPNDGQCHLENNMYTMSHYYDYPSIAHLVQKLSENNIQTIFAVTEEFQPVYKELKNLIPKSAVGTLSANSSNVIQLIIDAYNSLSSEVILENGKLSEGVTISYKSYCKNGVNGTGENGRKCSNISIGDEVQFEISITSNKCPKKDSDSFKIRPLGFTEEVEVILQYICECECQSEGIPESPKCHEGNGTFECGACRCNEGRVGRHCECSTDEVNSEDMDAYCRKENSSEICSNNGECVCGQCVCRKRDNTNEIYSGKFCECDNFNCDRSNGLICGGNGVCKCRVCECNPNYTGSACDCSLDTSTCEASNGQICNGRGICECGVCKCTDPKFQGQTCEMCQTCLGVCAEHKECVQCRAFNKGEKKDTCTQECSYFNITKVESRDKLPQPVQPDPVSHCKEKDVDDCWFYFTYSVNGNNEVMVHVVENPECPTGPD
Supply the numeric figure in µg/mL, leaving out any unit text.

Worked examples follow.
IIA1, mouse anti-human α5β1 integrin antibody (antibody, V domains shown, Mouse monoclonal antibody (Pharmingen); also called murine IIA1; M100) VH: QVQLKESGPGLVAPSQSLSITCTISGFSLTDYGVHWVRQPPGKGLEWLVVIWSDGSSTYNSALKSRMTIRKDNSKSQVFLIMNSLQTDDSAMYYCARHGTYYGMTTTGDALDYWGQGTSVTVSS VL: QIVLTQSPAIMSASLGERVTMTCTASSSVSSNYLHWYQQKPGSAPNLWIYSTSNLASGVPARFSGSGSGTSYSLTISSMEAEDAATYYCHQYLRSPPTFGGGTKLEIKR: 79.1
M200 chimeric anti-α5β1 integrin antibody (antibody, human IgG4, kappa, V domains shown, Mouse/human chimeric IgG4/kappa; also called 200-M; 200-4 EOS) VH: QVQLKESGPGLVAPSQSLSITCTISGFSLTDYGVHWVRQPPGKGLEWLVVIWSDGSSTYNSALKSRMTIRKDNSKSQVFLIMNSLQTDDSAMYYCARHGTYYGMTTTGDALDYWGQGTSVTVSS VL: QIVLTQSPAIMSASLGERVTMTCTASSSVSSNYLHWYQQKPGSAPNLWIYSTSNLASGVPARFSGSGSGTSYSLTISSMEAEDAATYYCHQYLRSPPTFGGGTKLEIKR: 106
HuM200-g2 m3G, humanized M200 with IgG2 constant region (antibody, V domains shown, Same variable domains as HuM200 with a constant region of IgG2) VH: EVQLVESGGGLVQPGGSLRLSCAASGFSLTDYGVHWVRQAPGKGLEWLVVIWSDGSSTYNSALKSRMTISKDNAKNTVYLQMNSLRAEDTAVYYCARHGTYYGMTTTGDALDYWGQGTLVTVSS VL: EIVLTQSPATLSLSPGERATLSCTASSSVSSNYLHWYQQKPGQAPRLLIYSTSNLASGVPARFSGSGSGTSYTLTISSLEPEDFAVYYCHQYLRSPPTFGGGTKVEIK: 103

Here is another binder to look at.
Exercise: Consider the binder shown here: HuM200, humanized M200 with IgG4 constant region (antibody, V domains shown, Humanized IgG4; also called HuM200-G4; huM200-G4) VH: EVQLVESGGGLVQPGGSLRLSCAASGFSLTDYGVHWVRQAPGKGLEWLVVIWSDGSSTYNSALKSRMTISKDNAKNTVYLQMNSLRAEDTAVYYCARHGTYYGMTTTGDALDYWGQGTLVTVSS VL: EIVLTQSPATLSLSPGERATLSCTASSSVSSNYLHWYQQKPGQAPRLLIYSTSNLASGVPARFSGSGSGTSYTLTISSLEPEDFAVYYCHQYLRSPPTFGGGTKVEIKR What is its recorded IC50?
Solution: 132
